experiment: Equilibrium solubility by the shake-flask method with HPLC-UV analysis; assay type: physicochemical; conditions: thermodynamic from solid, ultrapure water, 37 °C, shake-flask, n = 3, read-out: [PZQ] in H2O attained in 24 hours
Quantity measured: solubility thermodynamic at 24 h

Req: Let me know recorded solubility thermodynamic at 24 h for O=C(C1CCCCC1)N1CC(=O)N2CCc3ccccc3C2C1 (stereo not shown) , thanks.
Resp: 211 µg/mL

* * *

test: Equilibrium solubility by the shake-flask method with HPLC-UV analysis; assay type: physicochemical; conditions: simulated intestinal fluid (SIF), fassgf or other biorelevant, thermodynamic from solid, simulated intestinal fluid pH 7.4, 37 °C, shake-flask, n = 3, read-out: [PZQ] in SIF attained in 24 hours
Quantity measured: solubility thermodynamic at 24 h (µg/mL)
Give the value in µg/mL but do not write µg/mL after it.

Req: Let me know recorded solubility thermodynamic at 24 h for O=C(C1CCCCC1)N1CC(=O)N2CCc3ccccc3C2C1 (stereo not shown) [Co-Crystal 12, praziquantel] , thanks.
Resp: 193

* * *

experiment: Equilibrium solubility by the shake-flask method with HPLC-UV analysis; assay type: physicochemical; settings: ultrapure water, 37 °C, shake-flask, n = 3
Quantity measured: [PZQ] in H2O attained in 24 hours (µg/mL)
Give the value in µg/mL but do not write µg/mL after it.

Req: Let me know recorded [PZQ] in H2O attained in 24 hours for O=C(C1CCCCC1)N1CC(=O)N2CCc3ccccc3C2C1.O=C(C1CCCCC1)N1CC(=O)N2CCc3ccccc3C2C1.O=C(O)c1cccc(O)c1 (centres unmarked) [Co-Crystal 9, PZQ – 3-HYDROXYBENZOIC ACID (3HBA) (2:1)] , thanks.
Resp: 248.12

As a next step, examine the compound that follows.
Req: Let me know recorded [PZQ] in H2O attained in 24 hours for O=C(C1CCCCC1)N1CC(=O)N2CCc3ccccc3C2C1.O=C(O)C(=O)O (centres unmarked) [Co-Crystal 8, PZQ – OXALIC ACID (OXA)] , thanks.
Resp: 250.12

* * *

experiment: Equilibrium solubility by the shake-flask method with HPLC-UV analysis; assay type: physicochemical; settings: simulated gastric fluid (SGF), thermodynamic from solid, simulated gastric fluid pH 1.5, 37 °C, shake-flask, n = 3, read-out: [PZQ] in SGF attained in 24 hours
Quantity measured: solubility thermodynamic at 24 h (µg/mL)
Give the value in µg/mL but do not write µg/mL after it.

Req: Let me know recorded solubility thermodynamic at 24 h for O=C(C1CCCCC1)N1CC(=O)N2CCc3ccccc3C2C1 (stereo not shown) [Co-Crystal 12, praziquantel] , thanks.
Resp: 200

* * *

experiment: Equilibrium solubility by the shake-flask method with HPLC-UV analysis; type: physicochemical; conditions: simulated gastric fluid pH 1.5, 37 °C, shake-flask, n = 3
Quantity measured: [PZQ] in SGF attained in 24 hours (µg/mL)
Give the value in µg/mL but do not write µg/mL after it.

Examples with answers:
Req: Let me know recorded [PZQ] in SGF attained in 24 hours for O=C(C1CCCCC1)N1CC(=O)N2CCc3ccccc3C2C1.O=C(O)c1ccc(O)cc1 (centres unmarked) [Co-Crystal 5, PZQ – 4-HYDROXYBENZOIC ACID (4HBA)] , thanks.
Resp: 203.21

Req: Let me know recorded [PZQ] in SGF attained in 24 hours for O.O=C(C1CCCCC1)N1CC(=O)N2CCc3ccccc3C2C1.O=C(O)c1ccccc1O (centres unmarked) [Co-Crystal 6, PZQ – SALICYLIC ACID (SAL) – H2O] , thanks.
Resp: 202.80

Req: Let me know recorded [PZQ] in SGF attained in 24 hours for O=C(C1CCCCC1)N1CC(=O)N2CCc3ccccc3C2C1.O=C(O)c1cccc(O)c1 (centres unmarked) [Co-Crystal 7, PZQ – 3-HYDROXYBENZOIC ACID (3HBA) (1:1)] , thanks.
Resp: 214.21

Req: Let me know recorded [PZQ] in SGF attained in 24 hours for O=C(C1CCCCC1)N1CC(=O)N2CCc3ccccc3C2C1.O=C(O)C(=O)O (centres unmarked) [Co-Crystal 8, PZQ – OXALIC ACID (OXA)] , thanks.
Resp: 238.78

As a next step, examine the molecule that follows.
Req: Let me know recorded [PZQ] in SGF attained in 24 hours for O=C(C1CCCCC1)N1CC(=O)N2CCc3ccccc3C2C1.O=C(C1CCCCC1)N1CC(=O)N2CCc3ccccc3C2C1.O=C(O)c1cccc(O)c1 (centres unmarked) [Co-Crystal 9, PZQ – 3-HYDROXYBENZOIC ACID (3HBA) (2:1)] , thanks.
Resp: 231.45
